- Tested on: HIV-2 CBL-20 strain
- protocolDetails: Inhibition of HIV-2-induced cytopathogenicity in C8166 cells (MTT)
- Format: cell-based
- conditionParameters: Human immunodeficiency virus 2, C8166, read-out: EC50 HIV-2 (Table 2)
- Method: HIV-1IIIB and HIV-2 CBL-20 strains were obtained from the supernatants of persistently infected H9/IIIB and CEM cells, respectively. HIV-1 and HIV-2 stock solutions had titres of 4.5 × 10^7 and 1.4 × 10^6 50% cell culture infectious doses (CCID50)/ml, respectively. […] The K103R + V179D + P225H mutant (EFVR) was derived from an IIIB strain passaged in MT-4 cells in the presence of Efavirenz (up to 2 μM). […]
// pEC50 lookup, one value per entry
Would you please state pEC50, meaning minus log10 of the concentration in mol/L, as a bare number?

compound	pEC50
O=c1c2ccccc2sn1NS(=O)(=O)c1ccccc1 [Compound 6]	5.15

Consider the compound shown here: C[C@@H]1[C@H](O)[C@@H](C)/C=C/C=C/C=C/C=C/C=C/C=C/C=C/[C@H](O[C@@H]2O[C@H](C)[C@@H](O)[C@H](N)[C@@H]2O)C[C@@H]2O[C@](O)(C[C@@H](O)C[C@@H](O)[C@H](O)CC[C@@H](O)C[C@@H](O)CC(=O)O[C@H]1C)C[C@H](O)[C@H]2C(=O)O [AMPH-B, Amphotericin B, reference compound] What is its recorded pEC50?
5.70

* * *

- measurementTarget: HIV-1 recombinant integrase (rIN) (Human immunodeficiency virus type 1 group M subtype B, UniProt P04585)
- Construct: HIV-1 recombinant integrase (rIN); made in house
- protocolDetails: Integrase (rIN) enzyme assays: 3'-processing and strand transfer
- Type: biochemical
measurementName: IC50

Endpoint output: IC50 of O=c1c2ccc(Cl)cc2sn1NS(=O)(=O)c1ccccc1Cl . Value?
> 30 µM

Same question for Cc1ccc(S(=O)(=O)Nn2sc3ccccc3c2=O)cc1 please.
> 30 µM

* * *

- Test system: HIV-1 A17 (K103N + Y181C)
- protocolDetails: Inhibition of virus-induced cytopathogenicity in MT-4 cells, NNRTI-resistant mutant A17
- Type: cell-based
- conditionParameters: in round brackets
# label = Satisfied if Selectivity Index (SI = CC50/EC50) A17 >= 7 else Not satisfied

Past entries and their recorded results:
> print(dat)
                                   compound       category
1  O=c1c2ccccc2sn1NS(=O)(=O)c1ccccc1 [Compound 6]      Satisfied
2  O=c1c2ccccc2sn1NS(=O)(=O)c1ccccc1Cl [Compound 12]  Not satisfied
3  O=c1c2ccccc2sn1NS(=O)(=O)c1ccc(F)cc1 [Compound 11]      Satisfied
4  O=c1c2ccccc2sn1NS(=O)(=O)c1ccc(Cl)cc1 [Compound 13]  Not satisfied

Is the recorded value of Selectivity Index (SI = CC50/EC50) A17 equal to or greater than 7 for this compound? O=c1c2ccccc2sn1NS(=O)(=O)c1ccccc1F [Compound 10]
Satisfied

What do you have for O=c1c2ccccc2sn1NS(=O)(=O)c1ccc(Cl)c(Cl)c1 [Compound 15] ?
Satisfied

And for Cc1ccc(S(=O)(=O)Nn2sc3ccccc3c2=O)cc1 [Compound 7] ?
Not satisfied

Next: O=c1c2ccccc2sn1NS(=O)(=O)c1ccc([N+](=O)[O-])cc1 [Compound 8]
Satisfied

Next up: Cc1ccc2sn(NS(=O)(=O)c3ccccc3Cl)c(=O)c2c1 [Compound 17]
Satisfied

Where these numbers come from: paper PMC12627007
